Tested on: A673/TR/shEF
test_name: cell viability (LOESS-normalised, relative to median of negative controls) (log2 ratio); higher = more viable cells (less compound effect), active = hit call of the paper (over 3 MAD below the median)
cond: 0.25 µM; library screen: screen1; EWS-FLI1 expression: high (no doxycycline); treatment time: 72 h
About 300 (9.4%) of roughly 3,200 compounds showed activity. The sample holds actives, similar compounds and a random draw of the others, so the mix is not that of the screen.
Under this convention, TRUE denotes cell viability (log2) strictly below 0.06 and FALSE denotes cell viability (log2) at or above 0.06.

[[record]]
compound = "C[C@H]1CC[C@@H](C(C)(C)O)CC2=C1CC[C@@H]2C"
system_name = "A673/TR/shEF"
cat = "TRUE"

[[record]]
compound = "Cc1cc(O)c(C)c2c1C(=O)Oc1c(C)c(O)c(C(=O)O)c(C)c1O2"
system_name = "A673/TR/shEF"
cat = "FALSE"

[[record]]
compound = "C[C@@H]1CC[C@@]23CCC4(C)[C@@](C=CC5[C@@]6(C)CCC(=O)C(C)(C)C6CC[C@]54C)(OC2=O)C3[C@H]1C (some centres undefined)"
system_name = "A673/TR/shEF"
cat = "FALSE"

[[record]]
compound = "COc1cc(O)c2c(=O)c(-c3ccc(O)cc3)coc2c1"
system_name = "A673/TR/shEF"
cat = "TRUE"

[[record]]
compound = "COc1ccc2c(c1)OC[C@@H](Cc1ccc(OC)c(OC)c1)C2=O"
system_name = "A673/TR/shEF"
cat = "TRUE"

[[record]]
compound = "CC(C)=CCc1c(O)c(C(=O)CC(C)C)c2oc(=O)cc(-c3ccccc3)c2c1O"
system_name = "A673/TR/shEF"
cat = "TRUE"

[[record]]
compound = "COc1cc2ncnc(Nc3cccc(Cl)c3)c2cc1OC"
system_name = "A673/TR/shEF"
cat = "FALSE"

[[record]]
compound = "C=C1[C@@H]([C@@]2(C)C=CC(=O)C(C)(C)[C@@H]2CC(=O)OC)CC[C@@]2(C)C(c3ccoc3)OC(=O)[C@H]3O[C@]132 (some centres undefined)"
system_name = "A673/TR/shEF"
cat = "FALSE"

[[record]]
compound = "COc1ccc(C[C@@H](N)C(=O)N[C@H]2[C@@H](O)[C@H](n3cnc4c(N(C)C)ncnc43)O[C@@H]2CO)cc1"
system_name = "A673/TR/shEF"
cat = "TRUE"

[[record]]
compound = "COc1ccc(/C=C(/NC(=O)c2ccccc2)C(=O)N2CCCCCC2)cc1OC"
system_name = "A673/TR/shEF"
cat = "FALSE"

[[record]]
compound = "CC(C)(O)CC[C@@H](O)[C@@](C)(O)[C@H]1CC[C@@]2(O)C3=CC(=O)[C@@H]4C[C@@H](O)[C@@H](O)C[C@]4(C)[C@H]3CC[C@]12C"
system_name = "A673/TR/shEF"
cat = "TRUE"

[[record]]
compound = "COc1ccc2c(c1)OCC(=Cc1ccc(OC)c(O)c1)C2=O"
system_name = "A673/TR/shEF"
cat = "FALSE"

[[record]]
compound = "CC(C)(O)[C@H]1CC[C@]2(C)[C@H]3CC[C@@H]4[C@@]5(C)CCCC(C)(C)[C@@H]5[C@@H](O)C[C@@]4(C)[C@]3(C)CC[C@@H]12"
system_name = "A673/TR/shEF"
cat = "TRUE"

[[record]]
compound = "C[C@H]1O[C@@H](O[C@H]2[C@@H](O)C[C@H](O[C@H]3[C@@H](O)C[C@H](O[C@H]4CC[C@@]5(C)[C@H](CC[C@@H]6[C@@H]5C[C@@H](O)[C@]5(C)[C@@H](C7=CC(=O)OC7)CC[C@]65O)C4)O[C@@H]3C)O[C@@H]2C)C[C@H](O)[C@@H]1O"
system_name = "A673/TR/shEF"
cat = "TRUE"

[[record]]
compound = "O=C(O)C1(O)C[C@@H](O)C(O)[C@H](O)C1 (some centres undefined)"
system_name = "A673/TR/shEF"
cat = "FALSE"

[[record]]
compound = "CC(=O)OC1CCC2(C)C(CCC3C2CC(=O)C2(C)C3CC3OC4(CCC(C)CO4)C(C)C32)C1 (centres undefined)"
system_name = "A673/TR/shEF"
cat = "FALSE"

[[record]]
compound = "COc1cc2c3cc1Oc1c(OC)c(OC)cc4c1C(Cc1ccc(O)c(c1)Oc1ccc(cc1)CC3N(C)CC2)N(C)CC4 (centres undefined)"
system_name = "A673/TR/shEF"
cat = "FALSE"

[[record]]
compound = "COc1ccc2c(c1)OC1CC1(c1ccccc1OC)C2=O (centres undefined)"
system_name = "A673/TR/shEF"
cat = "FALSE"

[[record]]
compound = "COC(=O)C1=C(C)N=c2s/c(=C/c3ccc(OC)cc3OC)c(=O)n2C1c1cccs1 (centres undefined)"
system_name = "A673/TR/shEF"
cat = "TRUE"

[[record]]
compound = "CC(C)c1c(O)ccc2c1CCC1[C@@](C)(C(=O)O)CCC[C@]21C (some centres undefined)"
system_name = "A673/TR/shEF"
cat = "TRUE"

[[record]]
compound = "Oc1ccc2c(c1)OC[C@]1(O)Cc3cc(O)c(O)cc3[C@H]21"
system_name = "A673/TR/shEF"
cat = "FALSE"

[[record]]
compound = "C/C1=C2N=C(/C=C3N=C(/C(C)=C4\\[N-]C(C(CC(N)=O)C4(C)CCC(=O)NCC(C)OP(=O)([O-])OC4C(CO)OC(n5cnc6cc(C)c(C)cc65)C4O)C4(C)N=C1C(CCC(N)=O)C4(C)CC(N)=O)C(CCC(N)=O)C\\3(C)C)C(CCC(N)=O)C/2(C)CC(N)=O.[Co+3] (centres undefined)"
system_name = "A673/TR/shEF"
cat = "TRUE"

[[record]]
compound = "CC(=O)O[C@@H]1c2c(ccc3ccc(=O)oc23)OC(C)(C)[C@@H]1OC(=O)CC(C)C"
system_name = "A673/TR/shEF"
cat = "TRUE"

[[record]]
compound = "CC(C)[C@@H]1CC[C@@H](C)CC1=O"
system_name = "A673/TR/shEF"
cat = "TRUE"

[[record]]
compound = "COc1cccc2c(C)cc(=O)[nH]c12"
system_name = "A673/TR/shEF"
cat = "FALSE"

[[record]]
compound = "COc1cc(O)c2c(=O)cc(-c3ccc(OC)c(-c4c(O)cc(O)c5c(=O)cc(-c6ccc(O)cc6)oc45)c3)oc2c1"
system_name = "A673/TR/shEF"
cat = "TRUE"

[[record]]
compound = "C[C@@H]1CC[C@@]2(OC1)O[C@H]1C[C@H]3[C@@H]4CC[C@H]5C[C@@H](O)CC[C@]5(C)[C@H]4C[C@@H](O)[C@]3(C)[C@H]1[C@@H]2C"
system_name = "A673/TR/shEF"
cat = "FALSE"

[[record]]
compound = "CC1(C)C=CC(=O)[C@@]2(C)C1CC(=O)[C@]1(C)C2CC[C@@]2(C)[C@H](c3ccoc3)OC(=O)C3OC321 (some centres undefined)"
system_name = "A673/TR/shEF"
cat = "TRUE"

[[record]]
compound = "OC[C@@H](O)C(O)[C@H](O)CO"
system_name = "A673/TR/shEF"
cat = "FALSE"

[[record]]
compound = "CCOc1ccc(C(=O)c2cc(O)c(OC)c(OC)c2O)cc1"
system_name = "A673/TR/shEF"
cat = "FALSE"

[[record]]
compound = "CCCC(CC)CCOC(=O)COc1cc(Cl)c(Cl)cc1Cl (centres undefined)"
system_name = "A673/TR/shEF"
cat = "TRUE"

[[record]]
compound = "CCCCCCCCCCCCCCCCCCOCC(O)CO (centres undefined)"
system_name = "A673/TR/shEF"
cat = "TRUE"

[[record]]
compound = "Cc1occc(=O)c1C=CO"
system_name = "A673/TR/shEF"
cat = "FALSE"

